Values were extracted from patent US20030148956A1.

target_desc: T1, CRF2R
T1 sequence (Q13324 whole entry, species assumed, looked up): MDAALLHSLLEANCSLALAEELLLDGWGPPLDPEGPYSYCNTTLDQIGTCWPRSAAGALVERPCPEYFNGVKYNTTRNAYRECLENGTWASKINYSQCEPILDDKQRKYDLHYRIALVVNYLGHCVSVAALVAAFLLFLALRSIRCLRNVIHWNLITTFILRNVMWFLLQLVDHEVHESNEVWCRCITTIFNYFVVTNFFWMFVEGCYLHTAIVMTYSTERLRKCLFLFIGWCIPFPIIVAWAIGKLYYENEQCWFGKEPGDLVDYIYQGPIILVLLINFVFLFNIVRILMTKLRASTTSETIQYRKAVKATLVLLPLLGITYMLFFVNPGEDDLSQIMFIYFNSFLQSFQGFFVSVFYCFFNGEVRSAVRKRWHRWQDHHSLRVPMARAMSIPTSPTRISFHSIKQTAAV
assay: cell-based or functional assay
Ends that are not written are not given here.
Please use fulfilled whenever CRF2R Emax is not below 80%, and not fulfilled whenever it is.

Could you please find out whether ZGPPISIDLPRYLLRKMIEIEKQEKEKQQAANNRLLLDTI (C-terminal amide) [SEQ ID NO 65] has CRF2R Emax that meets 80% or exceeds it?
not fulfilled

Record ZGPPISIDLPVYLLRKMIEIEKQEKEKQQAANNRLLLDTI (C-terminal amide) [SEQ ID NO 39] ; criterion: CRF2R Emax no lower than 80%. Met?
fulfilled

Quick check: does ZGPPISIDLPIWLLRKMIEIEKQEKEKQQAANNRLLLDTI (C-terminal amide) [SEQ ID NO 192] have CRF2R Emax greater than or equal to 80%?
fulfilled

Could you please find out whether ZGPPISIDLSLELLRKMIEIEKQEKEKQQATTNARILARV (C-terminal amide) [SEQ ID NO 142] has CRF2R Emax that meets 80% or exceeds it?
not fulfilled

Please indicate if the recorded CRF2R Emax for SQEPPISLDLPIGLLREVLEMTKADQLAQQAHSNRKLLDIA-NH2 [SEQ ID NO 93] meets or exceeds 80%.
not fulfilled

I'd appreciate it if you could say whether ZGPPISIDLPIDLLRKMIEIEKQEKEKQQAANNRLLLDTI (C-terminal amide) [SEQ ID NO 28] has CRF2R Emax at least equal to 80%.
not fulfilled

Would you say ZGPPISIDVPTYLLRILIEIEKQEKEKQQATTNARILARV (C-terminal amide) [SEQ ID NO 169] shows CRF2R Emax at minimum 80%?
fulfilled

# bool: CRF2R Emax of IVLSLDVPIGLLQILLEQAAAREQATTNARILARV-NH2 [SEQ ID NO 139] >= 80%
not fulfilled

Form field: CRF2R Emax at least 80%? Entry: DNPSLSIDLPLFLLRTLLELARTQSQRERAEQNAIIFASV-NH2 [SEQ ID NO 178]
fulfilled

Please check the record ZGPPISIDLPTVLLRKMIEIEKQEKEKQQAANNRLLLDTI (C-terminal amide) [SEQ ID NO 46] and state if its CRF2R Emax is at or above 80%.
fulfilled
